The following binders are shown together with reported koff values.
# experimental-target: T1, Soluble TSHR (22-260) protein (human, UniProt P16473 22-260)
# T1 construct: range 22-260
# experimental-protocol: SPR (Biacore T200, 25 C), antibody captured on anti-human Fc, soluble TSHR (22-260) as analyte, 1:1 fit;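 also: antibodies captured at 0.1 ug/mL on a CM5 sensor chip bearing anti-human Fc, with HBS-EP+ running buffer at pH 7.4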
readout-label: koff (s⁻¹)

INSERT INTO measurements (binder, readout_label, quantitative_result) VALUES
  ('TSHB-10 (antibody, V domains shown) VH: EVQLVQSGAEVKKPGESLKISCKASGYSLTDNWIGWVRQKPGKGLEWMGIIYPGDSDTRYSPSFKGQVTISADKSISTAYLQWSSLKASDTAIYYCVGLDWNYNPLRYWGQGTLVTVSS VL: QSVLTQPPSVSAAPGQKVTISCSGSSSDIGSNYVSWYQQFPGTAPKLLIYDNNKRPSAIPDRFSGSKSGTSATLGITGLQTGDEADYYCGTWDSRLGIAVFGGGTQLTVL', 'koff', 0.000338),
  ('TSHB-5 (antibody, V domains shown) VH: EVQLVQSGAEVKKPGESLKISCKASGYQLTDNWIGWVRQKPGKGLEWMGIIYPGDSDTRYSPSFQGQVTISADKSISTAYLQWSSLKASDTAIYYCVGLDWNYNPLRYWGQGTLVTVSS VL: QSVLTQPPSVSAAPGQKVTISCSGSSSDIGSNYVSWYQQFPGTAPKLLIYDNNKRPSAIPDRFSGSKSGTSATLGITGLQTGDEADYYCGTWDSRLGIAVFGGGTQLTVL', 'koff', 0.00044),
  ('TSHB-15 (antibody, V domains shown) VH: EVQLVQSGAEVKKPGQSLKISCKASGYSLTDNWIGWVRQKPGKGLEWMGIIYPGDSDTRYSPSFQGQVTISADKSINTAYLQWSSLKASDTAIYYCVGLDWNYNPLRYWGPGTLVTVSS VL: QSVLTQPPSVSAAPGQKVTISCSGSSSDIGSNYVSWYQQLPGTAPKLLIYDNNKRPSGIPDRFSGSKSGTSATLGITGLQTGDEADYYCGTWDSRFGIAVFGGGTQLTVL', 'koff', 0.000372),
  ('TSHB-17 (antibody, V domains shown) VH: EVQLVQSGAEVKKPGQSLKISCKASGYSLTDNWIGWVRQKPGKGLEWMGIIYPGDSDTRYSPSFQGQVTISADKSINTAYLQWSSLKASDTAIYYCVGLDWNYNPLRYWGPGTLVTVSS VL: QSVLTQPPSVSAAPGQKVTISCSGSSSDIGSLYVSWYQQLPGTAPKLLIYDNNKRPSGIPDRFSGSKSGTSATLGITGLQTGDEADYYCGTWDSRLGIAVFGGGTQLTVL', 'koff', 0.000407),
  ('TSHB-23 (antibody, V domains shown) VH: EVQLVQSGAEVKKPGESLKISCKASGYSLTDNWIGWVRQKPGKGLEWMGIIYPGDSDTRYSPSFQGQVTISADKSISTAYLQWSSLKASDTAIYYCVGLDWNYNPLRYWGQGTLVTVSS VL: QSVLTQPPSVSAAPGQKVTISCSGSSSDIGSNYVSWYQQLPGTAPKLLIYDNNKRPSGIPDRFSGSKSGTSATLGITGLQTGDEADYYCGTWDSRLGIAVFGGGTQLTVL', 'koff', 0.000344),
  ('TSHB-21 (antibody, V domains shown) VH: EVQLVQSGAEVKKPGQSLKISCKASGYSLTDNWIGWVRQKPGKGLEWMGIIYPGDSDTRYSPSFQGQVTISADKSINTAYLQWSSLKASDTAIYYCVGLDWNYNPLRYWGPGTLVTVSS VL: QSVLTQPPSVSAAPGQKVTISCSGSSSDIGSNYVSWYQQLPGTAPKLLIYDNNKRPSGIPDRFSGSKSGTSATLGITGLQTGDEADYYCATWDSRLGIAVFGGGTQLTVL', 'koff', 0.000357);
